Tested on: cancer cell lines from the cancer cell line encyclopedia (CCLE)
Test: Cell line profiling (CLiP) proliferation experiment
Format: cell-based
Conditions: Homo sapiens, NUGC-3, NUGC-3 cells; read-out: Crossing Point
pIC50: −log10 of the molar value.
observed property: pIC50

input: Look up pIC50 for this compound: CC(C)[C@@]12C[C@@H](O)[C@@](C)(O1)[C@@H]1CC[C@@H](C)[C@H]1[C@@H]2OC(=O)/C=C/c1ccccc1
output: < 4.52

====

Test system: cancer cell lines from the cancer cell line encyclopedia (CCLE)
Assay: Cell line profiling (CLiP) proliferation experiment
Format: cell-based
Conditions: Homo sapiens, SNU-449, SNU-449 (liver); read-out: Crossing Point
observed property: IC50 (µM)
// return numeric value only (unit: µM, not printed)

input: May I ask what IC50 has been recorded for CC(C)[C@@]12C[C@@H](O)[C@@](C)(O1)[C@@H]1CC[C@@H](C)[C@H]1[C@@H]2OC(=O)/C=C/c1ccccc1 [Englerin B] ?
output: 19.1

====

System: cancer cell lines from the cancer cell line encyclopedia (CCLE)
Assay: Cell line profiling (CLiP) proliferation experiment
Type: cell-based
Details: cell line NCI-H2106; read-out: Crossing Point
observed property: IC50

input: IC50 lookup needed for CC(C)[C@@]12C[C@@H](O)[C@@](C)(O1)[C@@H]1CC[C@@H](C)[C@H]1[C@@H]2OC(=O)/C=C/c1ccccc1 , thanks.
output: > 30 µM

====

Tested on: cancer cell lines from the cancer cell line encyclopedia (CCLE)
Experiment: Cell line profiling (CLiP) proliferation experiment
Format: cell-based
Conditions: Homo sapiens, KMS-12-BM; read-out: Crossing Point
Method: Compound profiling experiment and data analysis was performed as previously described. Data was imported and plotted using the Tibco Spotfire DXP application. Lines were categorized as sensitive, intermediate and refractory as follows: Amax<-40 & Inflection Point <2 ~ Sensitive, Amax>-20 & Inflection Point >10 ~ Refractory, all else were called Intermediate. Cancer Cell line HG-U133 Plus 2 data was processed and normalized as described. […]
observed property: pIC50
Reminder that pIC50 is minus the log10 of a molar concentration.

input: # input compound: CC(C)[C@@]12C[C@@H](O)[C@@](C)(O1)[C@@H]1CC[C@@H](C)[C@H]1[C@@H]2OC(=O)/C=C/c1ccccc1 ; wanted: its pIC50
output: 4.60

====

System: cancer cell lines from the cancer cell line encyclopedia (CCLE)
Experiment: Cell line profiling (CLiP) proliferation experiment
Assay type: cell-based
Conditions: Homo sapiens, U-118-MG, U-118 MG (central_nervous_system, astrocytoma); read-out: Crossing Point
observed property: IC50

input: Any idea what IC50 was measured for CC(C)[C@@]12C[C@@H](O)[C@@](C)(O1)[C@@H]1CC[C@@H](C)[C@H]1[C@@H]2OC(=O)/C=C/c1ccccc1 ?
output: > 30 µM

====

Tested on: cancer cell lines from the cancer cell line encyclopedia (CCLE)
Experiment: Cell line profiling (CLiP) proliferation experiment
Format: cell-based
Conditions: cell line 59M; ovary; NS; read-out: Crossing Point
observed property: IC50

input: Consider the compound CC(C)[C@@]12C[C@@H](O)[C@@](C)(O1)[C@@H]1CC[C@@H](C)[C@H]1[C@@H]2OC(=O)/C=C/c1ccccc1 and give its measured IC50.
output: > 30 µM

====

Test system: cancer cell lines from the cancer cell line encyclopedia (CCLE)
Assay: Cell line profiling (CLiP) proliferation experiment
Assay type: cell-based
Conditions: Ki-JK (haematopoietic_and_lymphoid_tissue); read-out: Crossing Point
observed property: IC50 (µM)
I only need the number, in µM, no unit after it.

input: Query: IC50; subject: CC(C)[C@@]12C[C@@H](O)[C@@](C)(O1)[C@@H]1CC[C@@H](C)[C@H]1[C@@H]2OC(=O)/C=C/c1ccccc1 [Englerin B]
output: 14.5

====

Tested on: cancer cell lines from the cancer cell line encyclopedia (CCLE)
Assay: Cell line profiling (CLiP) proliferation experiment
Assay type: cell-based
Details: Homo sapiens, DV-90, cell line DV-90, lung; read-out: Crossing Point
observed property: pIC50
Would you please state pIC50, meaning minus log10 of the concentration in mol/L, as a bare number?

input: Query: pIC50; subject: CC(C)[C@@]12C[C@@H](O)[C@@](C)(O1)[C@@H]1CC[C@@H](C)[C@H]1[C@@H]2OC(=O)/C=C/c1ccccc1
output: 4.75

====

Tested on: cancer cell lines from the cancer cell line encyclopedia (CCLE)
Assay: Cell line profiling (CLiP) proliferation experiment
Assay type: cell-based
Conditions: Homo sapiens, HCC95, cell line HCC-95, lung; read-out: Crossing Point
observed property: IC50 (µM)
Entry rule: numbers only, all in µM.

input: State its IC50 on cancer cell lines from the cancer cell line encyclopedia (CCLE): CC(C)[C@@]12C[C@@H](O)[C@@](C)(O1)[C@@H]1CC[C@@H](C)[C@H]1[C@@H]2OC(=O)/C=C/c1ccccc1 [Englerin B]
output: 27.6

====

Test system: cancer cell lines from the cancer cell line encyclopedia (CCLE)
Test: Cell line profiling (CLiP) proliferation experiment
Assay type: cell-based
Conditions: Homo sapiens, NCI-H596, NCI-H596, lung, mixed_adenosquamous_carcinoma; read-out: Crossing Point
observed property: IC50

input: Bench note: what IC50 did CC(C)[C@@]12C[C@@H](O)[C@@](C)(O1)[C@@H]1CC[C@@H](C)[C@H]1[C@@H]2OC(=O)/C=C/c1ccccc1 show?
output: > 30 µM

====

Test system: cancer cell lines from the cancer cell line encyclopedia (CCLE)
Assay: Cell line profiling (CLiP) proliferation experiment
Assay type: cell-based
Details: Homo sapiens, OVSAHO, cell line OVSAHO; read-out: Inflection Point
observed property: pEC50
Scale: negative log10 of molar concentration, which is what pEC50 denotes.

input: Find the recorded pEC50 belonging to CC(C)[C@@]12C[C@@H](O)[C@@](C)(O1)[C@@H]1CC[C@@H](C)[C@H]1[C@@H]2OC(=O)/C=C/c1ccccc1 [Englerin B] and report it.
output: 4.74

====

Tested on: cancer cell lines from the cancer cell line encyclopedia (CCLE)
Experiment: Cell line profiling (CLiP) proliferation experiment
Type: cell-based
Details: Homo sapiens, HT-144, cell line HT-144, skin; read-out: Crossing Point
pIC50: −log10 of the molar value.
observed property: pIC50

input: Field request: pIC50 | item: CC(C)[C@@]12C[C@@H](O)[C@@](C)(O1)[C@@H]1CC[C@@H](C)[C@H]1[C@@H]2OC(=O)/C=C/c1ccccc1
output: < 4.52

====

Tested on: cancer cell lines from the cancer cell line encyclopedia (CCLE)
Experiment: Cell line profiling (CLiP) proliferation experiment
Assay type: cell-based
Conditions: NCI-H1869 cells; read-out: Inflection Point
observed property: EC50 (nM)
# number only, unit nM dropped from output

input: Param item = CC(C)[C@@]12C[C@@H](O)[C@@](C)(O1)[C@@H]1CC[C@@H](C)[C@H]1[C@@H]2OC(=O)/C=C/c1ccccc1 ; retrieve measured EC50.
output: 2950

====

System: cancer cell lines from the cancer cell line encyclopedia (CCLE)
Assay: Cell line profiling (CLiP) proliferation experiment
Assay type: cell-based
Conditions: Homo sapiens, SK-BR-3, cell line SK-BR-3, breast; read-out: Crossing Point
pIC50: −log10 of the molar value.
observed property: pIC50

input: Consider the molecule CC(C)[C@@]12C[C@@H](O)[C@@](C)(O1)[C@@H]1CC[C@@H](C)[C@H]1[C@@H]2OC(=O)/C=C/c1ccccc1 [Englerin B] and give its measured pIC50.
output: < 4.52

====

System: cancer cell lines from the cancer cell line encyclopedia (CCLE)
Assay: Cell line profiling (CLiP) proliferation experiment
Type: cell-based
Conditions: Homo sapiens, PSN1, cell line PSN1; read-out: Crossing Point
observed property: pIC50
API: returns pIC50 as number; meaning -log10 of concentration in mol/L.

input: Which value of pIC50 has been reported for CC(C)[C@@]12C[C@@H](O)[C@@](C)(O1)[C@@H]1CC[C@@H](C)[C@H]1[C@@H]2OC(=O)/C=C/c1ccccc1 in the records?
output: 4.53

====

System: cancer cell lines from the cancer cell line encyclopedia (CCLE)
Experiment: Cell line profiling (CLiP) proliferation experiment
Type: cell-based
Details: Homo sapiens, P3HR-1, cell line P3HR-1; read-out: Crossing Point
observed property: IC50
Quick note: number first, unit second.

input: Returns the measured IC50 for the input compound. Input: CC(C)[C@@]12C[C@@H](O)[C@@](C)(O1)[C@@H]1CC[C@@H](C)[C@H]1[C@@H]2OC(=O)/C=C/c1ccccc1
output: 25.4 µM

====

Tested on: cancer cell lines from the cancer cell line encyclopedia (CCLE)
Assay: Cell line profiling (CLiP) proliferation experiment
Assay type: cell-based
Conditions: Homo sapiens, AMO1, cell line AMO-1; haematopoietic_and_lymphoid_tissue; plasma_cell_myeloma; read-out: Inflection Point
observed property: EC50 (µM)
Dear colleague, please return just the value in µM, with no unit written.

input: Please give the measured EC50 for this molecule: CC(C)[C@@]12C[C@@H](O)[C@@](C)(O1)[C@@H]1CC[C@@H](C)[C@H]1[C@@H]2OC(=O)/C=C/c1ccccc1 [Englerin B]
output: 12.2
